Known pKa of a selection of compounds
- Experimental protocol: Dissociation constant, pKa of compound
- Assay type: physicochemical
Output: the number by itself.

# Substance smiles, pKa
data = [
    ("COc1cnc(OC)c2c1c(C(=O)C(=O)N1CCN(C(=O)c3ccccc3)CC1)cn2COP(=O)(O)O.NCCCC[C@H](N)C(=O)O", 2.2),
]

Query compound follows.
Noted for COc1ncc(OC)c2c(C(=O)C(=O)N3CCN(C(=O)c4ccccc4)CC3)c[nH]c12 : its pKa reads 2.6

====

- Experimental protocol: Volume of distribution at steady state in cynomolgus monkey at 1.3 mg/kg, iv
- Type: ADME, organism-based, Macaca fascicularis
- Design: dose 1.3 mg/kg, route intravenous
- Experimental parameters: in vivo, read-out: Vdss
Property name: Vd (L/kg)
Kindly answer with a numeric value in L/kg, unit omitted.

Noted for COc1cnc(OC)c2c1c(C(=O)C(=O)N1CCN(C(=O)c3ccccc3)CC1)cn2COP(=O)(O)O.NCCCC[C@H](N)C(=O)O : its Vd reads 0.048

====

- Experimental protocol: Volume of distribution at steady state in Sprague-Dawley rat at 1.4 mg/kg, iv
- Type: ADME, organism-based
- Design: dose 1.4 mg/kg, route intravenous
- Experimental parameters: in vivo, read-out: Vdss
Property name: Vd (L/kg)
Kindly answer with a numeric value in L/kg, unit omitted.

Noted for COc1cnc(OC)c2c1c(C(=O)C(=O)N1CCN(C(=O)c3ccccc3)CC1)cn2COP(=O)(O)O.NCCCC[C@H](N)C(=O)O : its Vd reads 0.12

====

- Experimental protocol: Cmax in healthy human at 100 mg, po administered with high fat meal
- Format: ADME, organism-based
- Set-up: dose 100 mg, route oral
- Experimental parameters: in vivo
Property name: Cmax (ng/mL)
Kindly answer with a numeric value in ng/mL, unit omitted.

Noted for COc1cnc(OC)c2c1c(C(=O)C(=O)N1CCN(C(=O)c3ccccc3)CC1)cn2COP(=O)(O)O.NCCCC[C@H](N)C(=O)O : its Cmax reads 3650

====

- Experimental protocol: AUC (infinity) in healthy human at 100 mg, po administered with high fat meal
- Format: ADME, organism-based
- Design: dose 100 mg, route oral, time infinity
- Experimental parameters: plasma
Property name: AUC(0-inf)
Answers without a unit are incomplete; give the number and then its unit.

Noted for COc1cnc(OC)c2c1c(C(=O)C(=O)N1CCN(C(=O)c3ccccc3)CC1)cn2COP(=O)(O)O.NCCCC[C@H](N)C(=O)O : its AUC(0-inf) reads 5730 ng·h/mL

====

- Experimental protocol: Cmax in healthy human at 800 mg, po administered with high fat meal
- Type: ADME, organism-based
- Parameters: dose 800 mg, route oral
- Experimental parameters: in vivo
Property name: Cmax (ng/mL)
Kindly answer with a numeric value in ng/mL, unit omitted.

Noted for COc1cnc(OC)c2c1c(C(=O)C(=O)N1CCN(C(=O)c3ccccc3)CC1)cn2COP(=O)(O)O.NCCCC[C@H](N)C(=O)O : its Cmax reads 26800

====

- Experimental protocol: Cmax in healthy human at 50 mg, po administered with high fat meal
- Format: ADME, organism-based
- Parameters: dose 50 mg, route oral
- Experimental parameters: in vivo
Property name: Cmax (ng/mL)
Kindly answer with a numeric value in ng/mL, unit omitted.

Noted for COc1cnc(OC)c2c1c(C(=O)C(=O)N1CCN(C(=O)c3ccccc3)CC1)cn2COP(=O)(O)O.NCCCC[C@H](N)C(=O)O : its Cmax reads 1370
